From: PubChem BioAssay AID1963856

Test system: LG0567-F671-PDC KRAS tumor spheroid viability
Test: Anticancer human tumor LG0567-F671-PDC patient-derived lung adenocarcinoma cell line growth inhibition [KRAS2]
Conditions: second compound 0.0316 µM; first compound 0.01 µM; active compounds read low; spheroids with HUVEC and MSC
Property Name: viability, T/C (%)
One number for each entry, in %.

CC1COCCN1c1cc(-c2ccnn2C)c2ccnc(-c3ccn[nH]3)c2n1 (stereo not drawn) + C=CC(=O)N1CCN(c2nc(OCC3CCCN3C)nc3c2CCN(c2cccc4cccc(C)c24)C3)CC1CC#N: 33.7
CCN1CCN(Cc2ccc(Nc3ncc(F)c(-c4cc(F)c5nc(C)n(C(C)C)c5c4)n3)nc2)CC1 + C=CC(=O)N1CCN(c2nc(OCC3CCCN3C)nc3c2CCN(c2cccc4cccc(C)c24)C3)CC1CC#N: 32.4

API: the following record is the query input.
Request: Look up viability, T/C: CN(C)C/C=C/C(=O)Nc1cc2c(Nc3ccc(F)c(Cl)c3)ncnc2cc1O[C@H]1CCOC1 + C=CC(=O)N1CCN(c2nc(OCC3CCCN3C)nc3c2CCN(c2cccc4cccc(C)c24)C3)CC1CC#N
Result: 29.8

###

Test system: LG0567-F671-PDC KRAS tumor spheroid viability
Experiment: Anticancer human tumor LG0567-F671-PDC cell line growth inhibition [KRAS2];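 further: drug exposure lasted seven days after spheroids formed for three days; 100% = DMSO vehicle control viability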
Conditions: second compound 0.0316 µM; first compound 0.01 µM; active compounds read low; spheroids with HUVEC and MSC
Property Name: viability, T/C (%)
Numbers only, in %.

CC(C)n1nc(-c2ccc3oc(N)nc3c2)c2c(N)ncnc21 + C=CC(=O)N1CCN(c2nc(OCC3CCCN3C)nc3c2CCN(c2cccc4cccc(C)c24)C3)CC1CC#N: 19.3
CC(=O)OC12COC1CC(O)C1(C)C(=O)C(O)C3=C(C)C(OC(=O)C(O)C(NC(=O)OC(C)(C)C)c4ccccc4)CC(O)(C(OC(=O)c4ccccc4)C21)C3(C)C (centres undefined) + C=CC(=O)N1CCN(c2nc(OCC3CCCN3C)nc3c2CCN(c2cccc4cccc(C)c24)C3)CC1CC#N: 18.9
CC(=O)Nc1cccc(-n2c(=O)n(C3CC3)c(=O)c3c(Nc4ccc(I)cc4F)n(C)c(=O)c(C)c32)c1 + C=CC(=O)N1CCN(c2nc(OCC3CCCN3C)nc3c2CCN(c2cccc4cccc(C)c24)C3)CC1CC#N: 24.2

API: the following record is the query input.
Request: Look up viability, T/C: Cn1ncnc1[C@H]1c2n[nH]c(=O)c3cc(F)cc(c23)N[C@@H]1c1ccc(F)cc1 + C=CC(=O)N1CCN(c2nc(OCC3CCCN3C)nc3c2CCN(c2cccc4cccc(C)c24)C3)CC1CC#N
Result: 35.6

###

Tested on: LG0567-F671-PDC KRAS tumor spheroid viability
Assay: Anticancer human tumor LG0567-F671-PDC cell line growth inhibition [KRAS2];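 further: drug exposure lasted seven days after spheroids formed for three days; 100% = DMSO vehicle control viability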
Settings: second compound 0.316 µM; first compound 0.01 µM; active compounds read low; spheroids with HUVEC and MSC
Property Name: viability, T/C (%)
Numbers only, in %.

Worked examples follow.
CCN1CCN(Cc2ccc(Nc3ncc(F)c(-c4cc(F)c5nc(C)n(C(C)C)c5c4)n3)nc2)CC1 + CC1OCC2(CCN(c3cnc(Sc4ccnc(N)c4Cl)c(N)n3)CC2)C1N: 30.2
CCN1CCN(Cc2ccc(Nc3ncc(F)c(-c4cc(F)c5nc(C)n(C(C)C)c5c4)n3)nc2)CC1 + CNCc1ccccc1-c1csc(C(C)Nc2nc(C)nc3cc(OC)c(OC)cc23)c1: 60.5
CC(C)n1nc(-c2ccc3oc(N)nc3c2)c2c(N)ncnc21 + C=CC(=O)N1CCN(c2nc(=O)n(-c3c(C)ccnc3C(C)C)c3nc(-c4c(O)cccc4F)c(F)cc23)C(C)C1: 11
CC1COCCN1c1cc(-c2ccnn2C)c2ccnc(-c3ccn[nH]3)c2n1 (stereo not given) + COc1cc2nc(C)nc(NC(C)c3cc(N)cc(C(F)(F)F)c3)c2cc1OC1CCOC1: 84

Request: Look up viability, T/C: CN(C)C/C=C/C(=O)Nc1cc2c(Nc3ccc(F)c(Cl)c3)ncnc2cc1O[C@H]1CCOC1 + C=CC(=O)N1CCN(c2nc(OCC3CCCN3C)nc3c2CCN(c2cccc4cccc(C)c24)C3)CC1CC#N
Result: 30.4

###

Test system: LG0567-F671-PDC KRAS tumor spheroid viability
Test: Anticancer human tumor LG0567-F671-PDC cell line growth inhibition [KRAS2];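 further: drug exposure lasted seven days after spheroids formed for three days; 100% = DMSO vehicle control viability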
Conditions: second compound 1 µM; first compound 3.16 µM; active compounds read low; spheroids with HUVEC and MSC
Please provide measured viability, T/C for the entries that follow.
One number for each entry, in %.

COC(=O)c1ccc2c(C(=Nc3ccc(N(C)C(=O)CN4CCN(C)CC4)cc3)c3ccccc3)c(O)[nH]c2c1 + C=CC(=O)N1CCN(c2nc(=O)n(-c3c(C)ccnc3C(C)C)c3nc(-c4c(O)cccc4F)c(F)cc23)C(C)C1: 26.6
CC1(C)CCC(CN2CCN(c3ccc(C(=O)NS(=O)(=O)c4ccc(NCC5CCOCC5)c([N+](=O)[O-])c4)c(Oc4cnc5[nH]ccc5c4)c3)CC2)=C(c2ccc(Cl)cc2)C1 + COc1cc2nc(C)nc(NC(C)c3cc(N)cc(C(F)(F)F)c3)c2cc1OC1CCOC1: 24.1
CCNC(=O)CC1N=C(c2ccc(Cl)cc2)c2cc(OC)ccc2-n2c(C)nnc21 (stereo not given) + COc1cc2nc(C)nc(NC(C)c3cc(N)cc(C(F)(F)F)c3)c2cc1OC1CCOC1: 7.07
CC1COCCN1c1cc(-c2ccnn2C)c2ccnc(-c3ccn[nH]3)c2n1 (stereo not given) + COc1cc2nc(C)nc(NC(C)c3cc(N)cc(C(F)(F)F)c3)c2cc1OC1CCOC1: 18.4
COC(=O)c1ccc2c(C(=Nc3ccc(N(C)C(=O)CN4CCN(C)CC4)cc3)c3ccccc3)c(O)[nH]c2c1 + C=CC(=O)N1CCN(c2nc(OCC3CCCN3C)nc3c2CCN(c2cccc4cccc(C)c24)C3)CC1CC#N: 23.9

Hey, quick one: what's viability, T/C for each of these?
1. CCNC(=O)CC1N=C(c2ccc(Cl)cc2)c2cc(OC)ccc2-n2c(C)nnc21 (stereo not given) + C=CC(=O)N1CCN(c2nc(OCC3CCCN3C)nc3c2CCN(c2cccc4cccc(C)c24)C3)CC1CC#N
2. CC1(C)CCC(CN2CCN(c3ccc(C(=O)NS(=O)(=O)c4ccc(NCC5CCOCC5)c([N+](=O)[O-])c4)c(Oc4cnc5[nH]ccc5c4)c3)CC2)=C(c2ccc(Cl)cc2)C1 + C=CC(=O)N1CCN(c2nc(OCC3CCCN3C)nc3c2CCN(c2cccc4cccc(C)c24)C3)CC1CC#N
3. O=C(c1cc(Cc2n[nH]c(=O)c3ccccc23)ccc1F)N1CCN(C(=O)C2CC2)CC1 + C=CC(=O)N1CCN(c2nc(=O)n(-c3c(C)ccnc3C(C)C)c3nc(-c4c(O)cccc4F)c(F)cc23)C(C)C1

Result:
[14.6, 2.97, 25.4]

Hey, quick one: what's viability, T/C for each of these?
1. CC1OCC2(CCN(c3cnc(Sc4ccnc(N)c4Cl)c(N)n3)CC2)C1N (stereo not given) + COc1cc2nc(C)nc(NC(C)c3cc(N)cc(C(F)(F)F)c3)c2cc1OC1CCOC1
2. CC(C)NCC(C(=O)N1CCN(c2ncnc3c2C(C)CC3O)CC1)c1ccc(Cl)cc1 (stereo not given) + C=CC(=O)N1CCN(c2nc(OCC3CCCN3C)nc3c2CCN(c2cccc4cccc(C)c24)C3)CC1CC#N

Result:
1: 19.2; 2: 15.3

###

Test system: LG0567-F671-PDC KRAS tumor spheroid viability
Test: Anticancer human tumor LG0567-F671-PDC cell line growth inhibition [KRAS2];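 further: drug exposure lasted seven days after spheroids formed for three days; 100% = DMSO vehicle control viability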
Details: second compound 1 µM; first compound 1 µM; active compounds read low; spheroids with HUVEC and MSC
Excerpt: Multicellular complex tumor spheroid response to RAS pathway inhibitors in combination with a targeted agents in patient-derived cell lines with oncogenic KRAS variants from multiple cancer types A high-throughput screen of multi-cell type tumor spheroids was designed to identify active combinations of targeted small molecules and KRAS pathway inhibitors. […] Compounds. […] If the clinical Cmax for an agent had not been determined, the highest concentration tested was 10 microM. […]
Please provide measured viability, T/C for the entries that follow.
Give bare numbers, in %.

Worked examples follow.
Cn1nccc1Nc1nccc(-c2cc3c(s2)C(C)(C)N(CCN2CCOCC2)C3=O)n1 + COc1cc2nc(C)nc(NC(C)c3cc(N)cc(C(F)(F)F)c3)c2cc1OC1CCOC1: 41.5
O=C(c1cc(Cc2n[nH]c(=O)c3ccccc23)ccc1F)N1CCN(C(=O)C2CC2)CC1 + COc1cc2nc(C)nc(NC(C)c3cc(N)cc(C(F)(F)F)c3)c2cc1OC1CCOC1: 94.1

Request: Look up viability, T/C: Cn1nccc1Nc1nccc(-c2cc3c(s2)C(C)(C)N(CCN2CCOCC2)C3=O)n1 + CC1OCC2(CCN(c3cnc(Sc4ccnc(N)c4Cl)c(N)n3)CC2)C1N
Result: 18.3
